Target Or System: CYP2B6 (Homo sapiens, UniProt P20813)
Construct: native enzyme in pooled human liver microsomes (200 donors, male and female; Sekisui XenoTech), isoform-selective P450-Glo CYP2B6 kit
Sequence (P20813 whole entry, canonical isoform): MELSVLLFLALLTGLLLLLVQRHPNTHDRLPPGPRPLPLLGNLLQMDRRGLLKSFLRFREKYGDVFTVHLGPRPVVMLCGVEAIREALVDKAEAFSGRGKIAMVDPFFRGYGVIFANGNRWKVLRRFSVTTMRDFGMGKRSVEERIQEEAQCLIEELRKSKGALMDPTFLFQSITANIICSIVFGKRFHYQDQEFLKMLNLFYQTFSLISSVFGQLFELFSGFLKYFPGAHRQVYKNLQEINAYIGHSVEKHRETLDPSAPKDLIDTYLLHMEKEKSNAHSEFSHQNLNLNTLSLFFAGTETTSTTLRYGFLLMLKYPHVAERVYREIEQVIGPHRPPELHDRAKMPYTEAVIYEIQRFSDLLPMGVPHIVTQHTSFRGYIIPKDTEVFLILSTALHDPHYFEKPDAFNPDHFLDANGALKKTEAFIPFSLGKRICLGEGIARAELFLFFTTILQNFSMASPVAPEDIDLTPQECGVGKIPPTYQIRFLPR
Measurement Description: P450-Glo luminescence inhibition assay
Type: biochemical
pIC50: −log10 of the molar value.
Hi, to clarify the labels: Y covers pIC50 from 4 upward, N covers anything below 4.

Solved cases (4 shown):
CC1(C)[C@H]2CC[C@]1(C)C(=O)C2 [Camphor (-)]
N
COc1cc2ccc(=O)oc2cc1O
N
COc1cc(-c2oc3cc(OC)c(OC)c(O)c3c(=O)c2OC)ccc1O
Y
C=C1C(=O)O[C@@]23[C@H]1CC[C@@H](C)[C@@H]2CC[C@@]1(C)O[C@@H]31
Y

Okay, now this compound:
Ask: # check: pIC50 of `O=C(/C=C/c1ccc(O)c(O)c1)O[C@@H]1C[C@](O)(C(=O)O)C[C@@H](O)[C@H]1O` is greater than or equal to 4
Result: N
